Reference source: patent US8846947B2

- TARGET SYSTEM: SIRT1 (Homo sapiens, UniProt Q96EB6)
- ASSAY DETAILS: Mass spectrometry based SIRT1 deacetylase activation assay (acetylated p53-derived peptide substrate)
- Type: biochemical
MEASURED PROPERTY: EC1.5

[[record]]
given_smiles = "O=C(Nc1ccncc1)c1cccc2[nH]c(-c3ccnn3-c3ccccc3)nc12"
recorded_value = "A (EC1.5<1.0 uM)"

[[record]]
given_smiles = "O=C(Nc1nccs1)c1cccc2[nH]c(-c3c(F)cccc3C(F)(F)F)nc12"
recorded_value = "B (EC1.5 1-25 uM)"

[[record]]
given_smiles = "Cc1nc(-c2nc3c(C(=O)Nc4nccs4)cccc3[nH]2)c(C)o1"
recorded_value = "B (EC1.5 1-25 uM)"

[[record]]
given_smiles = "Cn1nc(C(F)(F)F)c(-c2nc3c(C(=O)Nc4ccccn4)cccc3[nH]2)c1Cl"
recorded_value = "A (EC1.5<1.0 uM)"

[[record]]
given_smiles = "O=C(Nc1cc[n+]([O-])cc1)c1cccc2[nH]c(-c3cc(F)ccc3C(F)(F)F)nc12"
recorded_value = "A (EC1.5<1.0 uM)"

[[record]]
given_smiles = "O=C(Nc1nccs1)c1cccc2[nH]c(-c3cc(F)cc(Cl)c3)nc12"
recorded_value = "B (EC1.5 1-25 uM)"

[[record]]
given_smiles = "O=C(Nc1nccs1)c1cccc2[nH]c(-c3ccc(-c4nnn[nH]4)cc3)nc12"
recorded_value = "A (EC1.5<1.0 uM)"

[[record]]
given_smiles = "O=C(Nc1nccs1)c1cccc2[nH]c(-c3ccccc3-c3ccccc3)nc12"
recorded_value = "B (EC1.5 1-25 uM)"


---

- TARGET SYSTEM: SIRT1 (Homo sapiens, UniProt Q96EB6)
- Sequence (Q96EB6 1-747): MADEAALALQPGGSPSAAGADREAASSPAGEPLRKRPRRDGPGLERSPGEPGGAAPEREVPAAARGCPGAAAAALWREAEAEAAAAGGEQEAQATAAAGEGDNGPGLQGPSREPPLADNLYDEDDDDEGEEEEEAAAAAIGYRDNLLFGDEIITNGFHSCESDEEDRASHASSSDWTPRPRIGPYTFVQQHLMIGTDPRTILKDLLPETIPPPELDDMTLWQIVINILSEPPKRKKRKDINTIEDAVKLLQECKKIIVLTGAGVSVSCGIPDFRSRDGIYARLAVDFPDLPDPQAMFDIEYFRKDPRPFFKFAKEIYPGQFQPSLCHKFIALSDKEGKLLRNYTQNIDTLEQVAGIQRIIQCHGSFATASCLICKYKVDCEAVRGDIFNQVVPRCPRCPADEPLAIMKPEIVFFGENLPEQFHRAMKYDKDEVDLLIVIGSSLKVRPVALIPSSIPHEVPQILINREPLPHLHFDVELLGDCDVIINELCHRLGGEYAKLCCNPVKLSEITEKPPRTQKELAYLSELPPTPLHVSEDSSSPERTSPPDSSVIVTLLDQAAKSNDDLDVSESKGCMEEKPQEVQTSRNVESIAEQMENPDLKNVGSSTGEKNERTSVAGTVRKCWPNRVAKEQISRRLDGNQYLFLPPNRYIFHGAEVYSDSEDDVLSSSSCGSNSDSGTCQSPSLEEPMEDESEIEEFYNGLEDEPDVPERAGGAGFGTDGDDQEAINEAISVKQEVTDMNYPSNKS
- ASSAY DETAILS: Mass spectrometry based SIRT1 deacetylase activation assay (acetylated p53-derived peptide substrate)
- Assay type: biochemical
- RECORDED CONDITIONS: 0.5 μM peptide substrate, 120 μM βNAD+, 10 nM SIRT1, 25 min at 25° C., read-out: EC1.5
MEASURED PROPERTY: EC1.5

[[record]]
molecule = "O=C(Nc1cccnc1)c1cccc2[nH]c(-c3ccccc3OC3CCNCC3)nc12 [Compound 539]"
recorded_value = "1000 to 25000 nM"

[[record]]
molecule = "Cc1cnc(NC(=O)c2cccc3[nH]c(-c4cc(F)ccc4C(F)F)nc23)s1 [Compound 512]"
recorded_value = "< 1000 nM"

[[record]]
molecule = "O=C(Nc1ccccn1)c1cccc2[nH]c(-c3ccc(F)cc3C(F)F)nc12 [Compound 561]"
recorded_value = "< 1000 nM"

[[record]]
molecule = "O=C(Nc1ccccn1)c1cccc2[nH]c(-c3cc(F)cc(Cl)c3OCCN3CCOCC3)nc12 [Compound 544]"
recorded_value = "1000 to 25000 nM"

[[record]]
molecule = "O=C(Nc1ccccn1)c1cccc2[nH]c(-c3ccccc3C(F)F)nc12 [Compound 516]"
recorded_value = "< 1000 nM"

[[record]]
molecule = "O=C(Nc1ccccn1)c1cccc2[nH]c(-c3ccccc3OCCN3CCCC3)nc12 [Compound 472]"
recorded_value = "1000 to 25000 nM"

[[record]]
molecule = "O=C(NC1CCOCC1)c1cccc2[nH]c(-c3ccccc3C(F)(F)F)nc12 [Compound 421]"
recorded_value = "> 25000 nM"

[[record]]
molecule = "O=C(Nc1nccs1)c1cccc2[nH]c(-c3ccc(OC4CCNCC4)cc3)nc12 [Compound 447]"
recorded_value = "< 1000 nM"

[[record]]
molecule = "O=C(Nc1nccs1)c1cccc2[nH]c(-c3ccccc3OC3CCNCC3)nc12 [Compound 428]"
recorded_value = "< 1000 nM"

[[record]]
molecule = "Cc1ccc(OCCN2CCOCC2)c(-c2nc3c(C(=O)Nc4nccs4)cccc3[nH]2)c1 [Compound 545]"
recorded_value = "< 1000 nM"

[[record]]
molecule = "O=C(Nc1ccccn1)c1cccc2[nH]c(-c3ccccc3OCCN3CC[C@H](F)C3)nc12 [Compound 510]"
recorded_value = "1000 to 25000 nM"

[[record]]
molecule = "Cc1cc(Cl)cc(-c2nc3c(C(=O)Nc4nccs4)cccc3[nH]2)c1OCCN1CCOCC1 [Compound 505]"
recorded_value = "1000 to 25000 nM"

[[record]]
molecule = "CS(=O)(=O)c1cc(Cl)ccc1-c1nc2c(C(=O)Nc3ccccn3)cccc2[nH]1 [Compound 522]"
recorded_value = "< 1000 nM"

[[record]]
molecule = "O=C(Nc1cccnn1)c1cccc2[nH]c(-c3ccccc3OCCN3CCOCC3)nc12 [Compound 488]"
recorded_value = "1000 to 25000 nM"

[[record]]
molecule = "O=C(Nc1nccs1)c1cccc2[nH]c(-c3ccc(F)cc3C(F)F)nc12 [Compound 559]"
recorded_value = "< 1000 nM"

[[record]]
molecule = "O=C(Nc1nccs1)c1cccc2[nH]c(-c3ccccc3C(F)F)nc12 [Compound 514]"
recorded_value = "< 1000 nM"

[[record]]
molecule = "O=C(NCc1ccccn1)c1cccc2[nH]c(-c3cccc(N4CCOCC4)c3)nc12 [Compound 471]"
recorded_value = "1000 to 25000 nM"

[[record]]
molecule = "O=C(Nc1cccc(OC2CCNC2)c1)c1cccc2[nH]c(-c3cc(F)ccc3C(F)(F)F)nc12 (centres unmarked) [Compound 524]"
recorded_value = "< 1000 nM"

[[record]]
molecule = "O=C(Nc1ccccn1)c1cccc2[nH]c(-c3ccccc3OC3CCNCC3)nc12 [Compound 538]"
recorded_value = "1000 to 25000 nM"

[[record]]
molecule = "CN1CCN(c2cccc(-c3nc4c(C(=O)Nc5nccs5)cccc4[nH]3)c2)CC1 [Compound 527]"
recorded_value = "< 1000 nM"

[[record]]
molecule = "O=C(Nc1nccs1)c1cccc2[nH]c(-c3cc(F)ccc3C(F)F)nc12 [Compound 511]"
recorded_value = "1000 to 25000 nM"

[[record]]
molecule = "O=C(Nc1ccccn1)c1cccc2[nH]c(-c3ccc(F)cc3OCCN3CCOCC3)nc12 [Compound 504]"
recorded_value = "1000 to 25000 nM"

[[record]]
molecule = "CS(=O)(=O)c1cccc(-c2nc3c(C(=O)Nc4ccccn4)cccc3[nH]2)c1 [Compound 403]"
recorded_value = "1000 to 25000 nM"


---

- TARGET SYSTEM: SIRT1 (Homo sapiens, UniProt Q96EB6)
- Sequence (Q96EB6 1-747): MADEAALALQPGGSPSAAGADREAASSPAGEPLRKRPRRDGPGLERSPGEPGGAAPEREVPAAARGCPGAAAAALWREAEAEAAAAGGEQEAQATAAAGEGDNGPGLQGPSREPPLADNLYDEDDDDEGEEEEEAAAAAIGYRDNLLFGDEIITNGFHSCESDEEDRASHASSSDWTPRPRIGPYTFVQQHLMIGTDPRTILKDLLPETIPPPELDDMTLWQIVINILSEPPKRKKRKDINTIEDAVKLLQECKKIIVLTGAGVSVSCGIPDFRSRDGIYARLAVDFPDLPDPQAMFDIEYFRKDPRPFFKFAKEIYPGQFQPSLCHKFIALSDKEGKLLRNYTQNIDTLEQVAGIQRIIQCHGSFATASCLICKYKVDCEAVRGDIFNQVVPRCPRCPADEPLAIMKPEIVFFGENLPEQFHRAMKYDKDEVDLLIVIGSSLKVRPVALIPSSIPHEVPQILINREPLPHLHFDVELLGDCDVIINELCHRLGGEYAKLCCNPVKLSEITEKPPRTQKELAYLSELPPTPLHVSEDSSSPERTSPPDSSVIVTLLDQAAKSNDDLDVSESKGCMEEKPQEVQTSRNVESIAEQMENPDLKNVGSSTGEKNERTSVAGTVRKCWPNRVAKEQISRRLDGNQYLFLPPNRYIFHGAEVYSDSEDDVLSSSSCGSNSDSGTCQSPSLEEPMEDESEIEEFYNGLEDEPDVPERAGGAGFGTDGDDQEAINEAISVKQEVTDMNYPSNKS
- ASSAY DETAILS: Mass spectrometry based SIRT1 deacetylase activation assay (acetylated p53-derived peptide substrate)
- Assay type: biochemical
- RECORDED CONDITIONS: 0.5 μM peptide substrate, 120 μM βNAD+, 10 nM SIRT1, 25 min at 25° C., read-out: EC1.5
MEASURED PROPERTY: EC1.5

[[record]]
compound = "Cc1cnc(NC(=O)c2cccc3[nH]c(-c4c(C(F)(F)F)nn(C)c4Cl)nc23)s1"
recorded_value = "< 1000 nM"

[[record]]
compound = "Cc1nc(-c2ccccc2)sc1-c1nc2c(C(=O)Nc3cccnc3)cccc2[nH]1"
recorded_value = "< 1000 nM"

[[record]]
compound = "CCCN1CCc2cc(-c3nc4c(C(=O)Nc5nccs5)cccc4[nH]3)ccc21"
recorded_value = "> 25000 nM"

[[record]]
compound = "O=C(Nc1ccccn1)c1cccc2[nH]c(-c3ccnc(N4CCCC4)c3)nc12"
recorded_value = "< 1000 nM"

[[record]]
compound = "CS(=O)(=O)c1ccccc1-c1nc2c(C(=O)Nc3nccs3)cccc2[nH]1"
recorded_value = "1000 to 25000 nM"

[[record]]
compound = "O=C(Nc1cccnc1)c1cccc2[nH]c(-c3ccc(N4CCOCC4)cc3C(F)(F)F)nc12"
recorded_value = "< 1000 nM"

[[record]]
compound = "O=C(NC1CCNCC1)c1cccc2[nH]c(-c3ccccc3C(F)(F)F)nc12"
recorded_value = "> 25000 nM"

[[record]]
compound = "Cc1cc(C)nc(NC(=O)c2cccc3[nH]c(-c4ccc(N5CCOCC5)cc4C(F)(F)F)nc23)c1"
recorded_value = "< 1000 nM"

[[record]]
compound = "O=C(Nc1ccncn1)c1cccc2[nH]c(-c3ccc(N4CCOCC4)cc3C(F)F)nc12"
recorded_value = "< 1000 nM"

[[record]]
compound = "O=C(Nc1ccc(OCC(O)CO)cc1)c1cccc2[nH]c(-c3ccc(Cl)cc3C(F)(F)F)nc12 (stereo not drawn)"
recorded_value = "< 1000 nM"

[[record]]
compound = "O=C(Nc1cccnn1)c1cccc2[nH]c(-c3ccc(N4CCOCC4)cc3C(F)(F)F)nc12"
recorded_value = "< 1000 nM"

[[record]]
compound = "Cn1cc(-c2nc3c(C(=O)Nc4nccs4)cccc3[nH]2)c(C(F)(F)F)n1"
recorded_value = "< 1000 nM"

[[record]]
compound = "O=C(Nc1nccs1)c1cccc2[nH]c(-c3cn4ccsc4n3)nc12"
recorded_value = "< 1000 nM"

[[record]]
compound = "O=C(Nc1cccnc1)c1cccc2[nH]c(-c3cccc4c3OC(F)(F)O4)nc12"
recorded_value = "< 1000 nM"

[[record]]
compound = "CS(=O)(=O)c1ccc(-c2nc3c(C(=O)Nc4cccnc4)cccc3[nH]2)cc1"
recorded_value = "> 25000 nM"

[[record]]
compound = "O=C(Nc1cccnn1)c1cccc2[nH]c(-c3ccc(F)cc3C(F)(F)F)nc12"
recorded_value = "< 1000 nM"

[[record]]
compound = "Cc1cnc(NC(=O)c2cccc3[nH]c(-c4cccc5c4OC(F)(F)O5)nc23)s1"
recorded_value = "< 1000 nM"

[[record]]
compound = "O=C(Nc1cccnn1)c1cccc2[nH]c(-c3ccc(N4CCOCC4)cc3C(F)F)nc12"
recorded_value = "< 1000 nM"

